# tgt: Pantothenate synthetase (Mycobacterium tuberculosis (strain ATCC 25618 / H37Rv))
# test.protocol: Coupled enzyme confirmation of inhibitors against recombinant Mtb PanC (AID 375);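 on inhibition: 0% = full reaction with vehicle and 100% = no enzyme background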
# study.conditions: coupled enzyme assay; at 10 µM, stronger effect = higher value
assay.endpoint: inhibition (%)
Lab book: enter the figure in %, no units written.

Provide one value: measured inhibition of `COc1ccc(C)cc1-n1nnnc1SCC(=O)Nc1cc(C)on1` 0

Provide one value: measured inhibition of `CCOC(=O)CSc1nnc(-c2ccc(NS(=O)(=O)c3ccc(C)cc3)cc2)o1` 0

Provide one value: measured inhibition of `c1ccc(-c2nnc(OCCN3CCOCC3)c3ccccc23)cc1` 0

Provide one value: measured inhibition of Cc1ccc(-c2noc(CN3C(C)CCCC3C)n2)cc1 (stereo unspecified) 0

Provide one value: measured inhibition of `O=C(O)CCN(CCC(=O)O)c1nnc(SCc2ccccc2)s1` 2

Provide one value: measured inhibition of `COc1ccccc1C(=O)Nc1c2c(nn1-c1cccc(C)c1C)CS(=O)(=O)C2` 7

Provide one value: measured inhibition of CCN1C(=O)C(C(=O)Nc2ccc(OC)cc2)C2CC1(C)Oc1ccccc12 (stereo unspecified) 0

Provide one value: measured inhibition of `COc1ccc(NC(=O)CSc2nc3c(c(=O)n2-c2ccc(F)cc2)SCC3)cc1` 0

Provide one value: measured inhibition of `CN(C(=O)Cn1c(=O)n(CCCCC(=O)NC2CCCC2)c(=O)c2ccccc21)C1CCCCC1` 0

Provide one value: measured inhibition of `O=S(=O)(NCc1ccccn1)c1ccc2c(c1)OCCO2` 0

Provide one value: measured inhibition of `OCc1nc2ccccc2n1CCCOc1ccccc1` 0

---

# test.protocol: Coupled enzyme confirmation of inhibitors against recombinant Mtb PanC (AID 375)
# study.conditions: coupled enzyme assay, measured here: coupling enzymes IC50 repeat trials
assay.endpoint: IC50

Provide one value: measured IC50 of CC(C)(C)C1CCc2onc(C(=O)Nc3cnn(Cc4ccc(F)cc4)c3)c2C1 (stereo unspecified) > 100 µM

---

Exercise: state measured inhibition for each of the compounds provided.
# test.protocol: growth suppression of yeast trafficking mutant, preliminary HTS, modulators of trafficking downstream of Golgi apparatus project, 1536-format plate, OD 615 nm (AID 637)
# study.conditions: yeast transport mutant growth, absorbance 615 nm, 18 h; stronger effect = higher value
Lab book: enter the figure in %, no units written.

Provide one value: measured inhibition of `O=C(c1ccc2nc3ccc(Cl)cc3c(=O)n2c1)N1CCC2(CC1)OCCO2` 1.94

Provide one value: measured inhibition of Cc1ccc(C2SCC(=O)Nc3c2c(=O)[nH]n3C2CCOC(C)(C)C2)cc1 (configuration not stated) 5.83

Provide one value: measured inhibition of `Cc1ccc(C)c(NC(=O)CSc2nnc([C@@H](N)Cc3c[nH]c4ccccc34)o2)c1` -4.13

Provide one value: measured inhibition of `CCOc1ccc(-n2c(O)c(C=NCCN3CCNCC3)c(=O)[nH]c2=O)cc1` -3.71

Provide one value: measured inhibition of `c1ccc2c(c1)[nH]c1cnccc12` 0.5

Provide one value: measured inhibition of `CC(C)OCCCNC(=O)c1c(N)n(Cc2cccs2)c2nc3ccccc3nc12` -7.33

Provide one value: measured inhibition of `CN(C)CCN=Cc1c(O)n(-c2cccc3ccccc23)c(=O)[nH]c1=O` 1.9

Provide one value: measured inhibition of `NC(=O)CSP(=O)(c1ccccc1)c1ccccc1` -2.9

Provide one value: measured inhibition of `CC(=NCCCO)c1c(O)n(Cc2ccccc2)c(=O)[nH]c1=O` 3.67

Provide one value: measured inhibition of `Cc1ccc(O)c(CN2CCN(c3ccccc3)CC2)c1` 1.33

Provide one value: measured inhibition of `CC(C)CC12CN3CCN(CC(C3)/C1=N/O)C2` -0.98

Provide one value: measured inhibition of C[C@H]1CCC/C=C/C2C[C@H](O)CC2[C@H](O)/C=C/C(=O)O1 (some centres not stated) 0
